Where do the numbers come from? From patent US20150218212A1.

System: A498
PROCEDURE DETAILS: NCI screening panel, A498 (Renal Cancer)
Assay type: cell-based, human
Overview of recorded Log10GI50 for various compounds
Answer with a number only.

Q) Given CC(C)C[C@H](NC(=O)[C@H](Cc1ccccc1)NC(=O)[C@H](COC(F)F)NC(=O)[C@H](COC(F)F)NC(=O)CN1CCOCC1)C(=O)[C@@]1(C)CO1 , state its recorded Log10GI50.
A) −7.64

Q) Which Log10GI50 is listed for CC(C)C[C@H](NC(=O)[C@H](COC(F)F)NC(=O)CN1CCOCC1)C(=O)N[C@@H](Cc1ccccc1)C(=O)N[C@@H](CC(C)C)C(=O)[C@@]1(C)CO1 ?
A) −7.67

Q) # Log10GI50 lookup, item CC(C)C[C@H](NC(=O)[C@H](COC(F)F)NC(=O)[C@H](COC(F)F)NC(=O)[C@H](COC(F)F)NC(=O)CN1CCOCC1)C(=O)[C@@]1(C)CO1
A) −6.87

Q) Quick one: Log10GI50 of CC(C)C[C@H](NC(=O)[C@H](COC(F)F)NC(=O)[C@H](COC(F)F)NC(=O)[C@H](CCc1ccccc1)NC(=O)CN1CCOCC1)C(=O)[C@@]1(C)CO1 ?
A) −7.40

Q) Using the record for CC(C)C[C@H](NC(=O)[C@H](COC(F)F)NC(=O)CN1CCOCC1)C(=O)N[C@@H](COC(F)F)C(=O)N[C@@H](Cc1ccccc1)C(=O)[C@@]1(C)CO1 , report its Log10GI50.
A) −7.42

Q) Please give the measured Log10GI50 for this compound: CC(C)C[C@H](NC(=O)[C@H](COC(F)F)NC(=O)CN1CCOCC1)C(=O)N[C@@H](COC(F)F)C(=O)N[C@@H](CC(C)C)C(=O)[C@@]1(C)CO1
A) −7.59

Q) State the recorded Log10GI50 for this entry: CC(C)C[C@H](NC(=O)[C@H](COC(F)F)NC(=O)CN1CCOCC1)C(=O)N[C@@H](Cc1ccccc1)C(=O)N[C@@H](Cc1ccccc1)C(=O)[C@@]1(C)CO1
A) −7.97

====

Measured Log10LC50 of individual entries
System: UACC-257
PROCEDURE DETAILS: NCI screening panel, UACC-257 (Melanoma)
Type: cell-based, human
// return a plain number; no unit text

>>> readout_value("CC(C)C[C@H](NC(=O)[C@H](COC(F)F)NC(=O)CN1CCOCC1)C(=O)N[C@@H](Cc1ccccc1)C(=O)N[C@@H](CC(C)C)C(=O)[C@@]1(C)CO1")
"−4.58"

Proceeding to the next compound to report its Log10LC50.
Q) Which value of Log10LC50 has been reported for CC(C)C[C@H](NC(=O)[C@H](COC(F)F)NC(=O)CN1CCOCC1)C(=O)N[C@@H](COC(F)F)C(=O)N[C@@H](Cc1ccccc1)C(=O)[C@@]1(C)CO1 in the records?
A) −4.14

====

Test system: MDA-MB-231/ATCC
PROCEDURE DETAILS: NCI screening panel, MDA-MB-231/ATCC (Breast Cancer)
Assay type: cell-based, human
READOUT NAME: Log10LC50
Number only, no unit.

Some solved cases for reference:
>>> readout_value("CC(C)C[C@H](NC(=O)[C@H](COC(F)F)NC(=O)CN1CCOCC1)C(=O)N[C@@H](COC(F)F)C(=O)N[C@@H](Cc1ccccc1)C(=O)[C@@]1(C)CO1")
"−4.14"
>>> readout_value("CC(C)C[C@H](NC(=O)[C@H](Cc1ccccc1)NC(=O)[C@H](COC(F)F)NC(=O)[C@H](COC(F)F)NC(=O)CN1CCOCC1)C(=O)[C@@]1(C)CO1")
"−4.39"
>>> readout_value("CC(C)C[C@H](NC(=O)[C@H](COC(F)F)NC(=O)[C@H](COC(F)F)NC(=O)[C@H](COC(F)F)NC(=O)CN1CCOCC1)C(=O)[C@@]1(C)CO1")
"−4.25"

Let us move to another entry and its Log10LC50.
Q) Request the reported Log10LC50 associated with CC(C)C[C@H](NC(=O)[C@H](COC(F)F)NC(=O)CN1CCOCC1)C(=O)N[C@@H](Cc1ccccc1)C(=O)N[C@@H](Cc1ccccc1)C(=O)[C@@]1(C)CO1
A) −4.81
